Test system: Aspergillus flavus
Assay: Antifungal activity against Aspergillus flavus NCIM 524 assessed as growth inhibition at […] to […] ug/ml after 3 to 4 days by agar well diffusion method
Format: functional
Entries and their diameter of the inhibition zone (DIZ)

Use these answered entries as a reference point.
Cn1cc(CCCNC(=O)CCc2c[nH]c3ccc(Cl)cc23)c2cc(OC(F)(F)F)ccc21; <10 mm
Cc1c(CNC(=O)CCc2cn(C)c3ccc(Cl)cc23)c2cc(OC(F)(F)F)ccc2n1C; <10 mm
Cn1cc(CCC(=O)NCc2cn(C)c3ccc(Cl)cc23)c2cc(Cl)ccc21; <10 mm
Cn1cc(CCC(=O)NCCCc2c[nH]c3ccc(OC(F)(F)F)cc23)c2cc(Cl)ccc21; 11 mm
Cn1cc(CCC(=O)NCc2c[nH]c3ccc(Cl)cc23)c2cc(Cl)ccc21; 16 mm
O=C(CCc1c[nH]c2ccc(Cl)cc12)NCc1c[nH]c2ccc(OC(F)(F)F)cc12; 16 mm

May I ask what diameter of the inhibition zone (DIZ) has been recorded for Cc1[nH]c2ccc(OC(F)(F)F)cc2c1CNC(=O)CCc1c[nH]c2ccc(Cl)cc12 ?
16 mm

May I ask what diameter of the inhibition zone (DIZ) has been recorded for Cc1c(CCCNC(=O)CCc2c[nH]c3ccc(Cl)cc23)c2cc(OC(F)(F)F)ccc2n1C ?
16 mm

May I ask what diameter of the inhibition zone (DIZ) has been recorded for Cn1cc(CCC(=O)NCc2c[nH]c3ccc(OC(F)(F)F)cc23)c2cc(Cl)ccc21 ?
16 mm

May I ask what diameter of the inhibition zone (DIZ) has been recorded for Cc1[nH]c2ccc(OC(F)(F)F)cc2c1CNC(=O)CCc1cn(C)c2ccc(Cl)cc12 ?
<10 mm

May I ask what diameter of the inhibition zone (DIZ) has been recorded for Cc1cc(C2CCCCC2)n(O)c(=O)c1.NCCO [CICLOPIROX OLAMINE] ?
25 mm

May I ask what diameter of the inhibition zone (DIZ) has been recorded for Cc1c(CNC(=O)CCc2c[nH]c3ccc(Cl)cc23)c2cc(OC(F)(F)F)ccc2n1C ?
11 mm

---

Test system: Escherichia coli
Assay: Antibacterial activity against Escherichia coli […] assessed as growth inhibition after 16 to 18 hr by serial plate dilution method
Assay type: functional
result-type: MIC
In your response, put the unit directly after the numeric value.

Cn1cc(CCCNC(=O)CCc2c[nH]c3ccc(Cl)cc23)c2cc(Cl)ccc21; 12.5 µg/mL
Cn1cc(CCC(=O)NCc2cn(C)c3ccc(Cl)cc23)c2cc(Cl)ccc21; 12.5 µg/mL

Query the reported MIC for Escherichia coli; item: Cn1cc(CCCNC(=O)CCc2c[nH]c3ccc(Cl)cc23)c2cc(OC(F)(F)F)ccc21
6.25 µg/mL

Query the reported MIC for Escherichia coli; item: Cn1cc(CCC(=O)NCc2c[nH]c3ccc(Cl)cc23)c2cc(Cl)ccc21
6.25 µg/mL

Query the reported MIC for Escherichia coli; item: Cc1c(CNC(=O)CCc2cn(C)c3ccc(Cl)cc23)c2cc(OC(F)(F)F)ccc2n1C
12.5 µg/mL

---

Tested on: Talaromyces marneffei
Assay: Antifungal activity against Talaromyces marneffei assessed as growth inhibition at […] to […] ug/ml after 3 to 4 days by agar well diffusion method
Format: functional
result-type: diameter of the inhibition zone (DIZ) (mm)
Provide the reading as a plain figure in mm.

Use these answered entries as a reference point.
Cn1cc(CCC(=O)NCc2cn(C)c3ccc(Cl)cc23)c2cc(Cl)ccc21; 11
O=C(CCc1c[nH]c2ccc(Cl)cc12)NCCCc1c[nH]c2ccc(Cl)cc12; 16
Cn1cc(CCCNC(=O)CCc2c[nH]c3ccc(Cl)cc23)c2cc(OC(F)(F)F)ccc21; 11
Cc1cc(C2CCCCC2)n(O)c(=O)c1.NCCO; 20
Cc1c(CCCNC(=O)CCc2cn(C)c3ccc(Cl)cc23)c2cc(OC(F)(F)F)ccc2n1C; 16

May I ask what diameter of the inhibition zone (DIZ) has been recorded for Cc1c(CNC(=O)CCc2c[nH]c3ccc(Cl)cc23)c2cc(OC(F)(F)F)ccc2n1C ?
11

May I ask what diameter of the inhibition zone (DIZ) has been recorded for O=C(CCc1c[nH]c2ccc(Cl)cc12)NCc1c[nH]c2ccc(OC(F)(F)F)cc12 ?
16

May I ask what diameter of the inhibition zone (DIZ) has been recorded for Cc1[nH]c2ccc(OC(F)(F)F)cc2c1CCCNC(=O)CCc1c[nH]c2ccc(Cl)cc12 ?
16

May I ask what diameter of the inhibition zone (DIZ) has been recorded for Cn1cc(CCC(=O)NCc2c[nH]c3ccc(OC(F)(F)F)cc23)c2cc(Cl)ccc21 ?
11

May I ask what diameter of the inhibition zone (DIZ) has been recorded for Cc1[nH]c2ccc(OC(F)(F)F)cc2c1CNC(=O)CCc1c[nH]c2ccc(Cl)cc12 ?
16

May I ask what diameter of the inhibition zone (DIZ) has been recorded for Cc1c(CCCNC(=O)CCc2c[nH]c3ccc(Cl)cc23)c2cc(OC(F)(F)F)ccc2n1C ?
16

May I ask what diameter of the inhibition zone (DIZ) has been recorded for Cn1cc(CNC(=O)CCc2c[nH]c3ccc(Cl)cc23)c2cc(Cl)ccc21 ?
16

May I ask what diameter of the inhibition zone (DIZ) has been recorded for Cn1cc(CCC(=O)NCc2c[nH]c3ccc(Cl)cc23)c2cc(Cl)ccc21 ?
16
